Source: patent US9409895B2

Target: Recombinant human ATX (Homo sapiens (Human))
Test: ATX inhibition assay (released choline, choline oxidase/HRP/Amplex Red fluorescence)
Type: biochemical
Settings: ATX 10 nM, LPC 18:1 10 μM, 37° C., 20 min pre-incubation; mean of n 2
Procedure: LPC (oleoyl (18:1)) was purchased from Avant: Polar Lipids (Alabaster, Ala.) and solubilized in methanol to 20 mM. Amplex Red was obtained from Invitrogen Life Technologies (Paisley, UK) and dissolved in DMSO to 10 mM. […] ATX activity was determined by measurement of released choline in reactions containing ATX (10 nM), choline oxidase (0.1 U/ml), HRP (100 U/ml), amplex red (50 μM) and LPC 18:1 (10 μM). […]
Reported Property: IC50 (µM)

INSERT INTO results (structure_smiles_string, measured_target, units, reading) VALUES
  ('CN(CCC1CCN(C(=O)OCc2cc(Cl)cc(C#N)c2)CC1)C(=O)c1c[nH]nn1', 'Recombinant human ATX (Homo sapiens (Human))', 'µM', 1);
